biological target: Rab7 GTPase (UniProt P18067); construct: fused on or other part: GST tag, used to hold the protein on glutathione beads; assay: Multiplex bead-based flow cytometry dose-response, BODIPY-FL-GTP binding to GST-tagged GTPase; settings: Assay format Mg; percent response
# binarize % Res: threshold 40% inclusive, high side Met, low side Not met

Solved cases (2 shown):
Please tell me: is the molecule CC(C)(C)C1Cc2c(sc(NC(=S)NC(=O)c3ccccc3)c2C(=O)O)CO1 (centres unmarked) at or over 40% in terms of % Res?
Met

Please tell me: is the molecule CC1(C)CCc2sc(NC(=S)NC(=O)c3ccccc3)c(C(=O)O)c2C1 at or over 40% in terms of % Res?
Met

Next:
Please tell me: is the molecule COc1cccc(C(=O)NC(=S)Nc2sc3c(c2C(=O)O)CC(C)(C)OC3)c1 at or over 40% in terms of % Res?
Not met

Please tell me: is the molecule CC1(C)Cc2c(sc(NC(=S)NC(=O)c3cccs3)c2C(=O)O)CO1 at or over 40% in terms of % Res?
Met

Please tell me: is the molecule Cc1cccc(C(=O)NC(=S)Nc2sc3c(c2C(=O)O)CC(C)(C)OC3)c1 at or over 40% in terms of % Res?
Not met

Please tell me: is the molecule CC1(C)Cc2c(sc(NC(=S)NC(=O)c3ccccc3F)c2C(=O)O)CO1 at or over 40% in terms of % Res?
Met

Please tell me: is the molecule COc1ccc(C(=O)NC(=S)Nc2sc3c(c2C(=O)O)CC(C)(C)OC3)cc1 at or over 40% in terms of % Res?
Met

Please tell me: is the molecule CC1(C)Cc2c(sc(NC(=S)NC(=O)c3ccco3)c2C(=O)O)CO1 at or over 40% in terms of % Res?
Met

Please tell me: is the molecule Cc1ccccc1C(=O)NC(=S)Nc1sc2c(c1C(=O)O)CC(C)(C)OC2 at or over 40% in terms of % Res?
Met

====

assay: Solubility in PBS and assay media, UV absorbance detection; type: physicochemical; conditions: Dose Response-Mg buffer, pH 7.5, aqueous with cosolvent or surfactant or cyclodextrin, Dose Response-Mg buffer; read-out: Solubility
Recorded Endpoint: solubility (µM)
Numbers only, in µM.

// query solubility value for entry CC1(C)Cc2c(sc(NC(=S)NC(=O)c3ccccc3)c2C(=O)O)CO1
174

====

molecular target: Rab7 GTPase (UniProt P18067); construct: fused on or other part: GST tag, used to hold the protein on glutathione beads; test: Multiplex bead-based flow cytometry dose-response, BODIPY-FL-GTP binding to GST-tagged GTPase; settings: Assay format Mg (1 mM Mg2+ buffer, 1 nM BODIPY-FL-GTP); mean of n replicates
Provide the reported pEC50 of each item.
One number for each entry, as −log10 of the molar value.

Below, 5 compounds whose answers are already recorded.
Give Rab7 GTPase (UniProt P18067) pEC50 for COc1ccc(C(=O)NC(=S)Nc2sc3c(c2C(=O)O)CC(C)(C)OC3)cc1
6.85

Give Rab7 GTPase (UniProt P18067) pEC50 for CC1(C)Cc2c(sc(NC(=S)NC(=O)c3cccc(F)c3)c2C(=O)O)CO1
6.54

Give Rab7 GTPase (UniProt P18067) pEC50 for CC1(C)Cc2c(sc(NC(=S)NC(=O)c3ccccc3Br)c2C(=O)O)CO1
6.19

Give Rab7 GTPase (UniProt P18067) pEC50 for CC1(C)Cc2c(sc(NC(=S)NC(=O)c3ccc(Br)cc3)c2C(=O)O)CO1
6.57

Give Rab7 GTPase (UniProt P18067) pEC50 for CC1(C)Cc2c(sc(NC(=S)NC(=O)c3ccc(F)cc3)c2C(=O)O)CO1
7.11

Please state pEC50 for every compound in the list that follows.
1. CC1(C)Cc2c(sc(NC(=S)NC(=O)c3ccco3)c2C(=O)O)CO1
2. COc1cccc(C(=O)NC(=S)Nc2sc3c(c2C(=O)O)CC(C)(C)OC3)c1
3. O=C(NC(=S)Nc1sc2c(c1C(=O)O)CC1(CCCC1)OC2)c1ccccc1

7.09
6.49
7.48

Please state pEC50 for every compound in the list that follows.
1. Cc1ccccc1C(=O)NC(=S)Nc1sc2c(c1C(=O)O)CC(C)(C)OC2
2. CC1(C)Cc2c(sc(NC(=S)NC(=O)c3cccs3)c2C(=O)O)CO1

[6.28, 7.60]
